- target under test: T1, 4H687-bH
- T1 chain: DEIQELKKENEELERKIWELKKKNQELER
- assay details: two-hybrid library CCNG1;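 note: natural log of median RNA to DNA barcode read ratio; higher means stronger binding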
value kind: interaction score

>>> numeric_value("DKIQELKKENEELERKIWELKKEIQELER [4H2729-bH]")
-0.723

A. DENQELEKENEELKRKIWELKKEIQELER [4H1257-bH]
B. DKIQELKKENEELEREIWELKKEIQELER [4H2697-bH]
Name the one with the greater interaction score value, either A or B as given. State your choice using its label.
A
